- assay_notes: Toxicity in ip dosed athymic nude mouse xenografted with human UACC62 cells administered every 4 days
- Assay type: organism-based, UACC-62
- protocol_conditions: in vivo
reported_metric: MTD at 96 h (mg/kg)
Express it in mg/kg; write the number only.

// query What MTD at 96 h value was documented for this compound, CC(C)[C@@]12SS[C@]3(C(=O)N1C)[C@@H](O)[C@]1(C45c6ccccc6N[C@H]4N4C(=O)[C@@]6(CO)SS[C@@]4(C(=O)N6C)[C@H]5O)c4ccccc4N[C@@H]1N3C2=O (stereo partly specified) ?
// result 1.5
